- EXPERIMENT: P-glycoprotein substrates identified in KB-8-5-11 adenocarcinoma cell line, qHTS therapeutic library screen (AID 1346987); further: nearly all actives have a fitted effect of over 65% in size
- CONDITION_DETAILS: KB-8-5-11 (P-gp overexpressing) viability, CellTiter-Glo, 72 h; series mostly up to 44.5 µM
- Procedure: The ATP-binding cassette transporters P-glycoprotein (P-gp) is known to limit brain penetration of many chemotherapy drugs. […] All cell lines were plated into 1536-well plates at 500 cells/well in 5 uL media. […] CellTiter-Glo reagent (Promega) was dispensed into the wells, incubated for 5 min and luminescence was read on a ViewLux instrument (Perkin-Elmer). […]
Records with an inconclusive call do not appear. Calls of active or inactive are those of the source. The call rests on the fitted dose curve; in most records, active means well fitted inhibition curve with a large enough effect; inconclusive means small, poorly fitted or top-dose-only effect; inactive means flat fitted curve, though single readings scatter.
Respond only with the outcome that fits, drawn from active, inactive

COMPOUND	CLASSIFICATION
NC(=O)c1nc(F)c[nH]c1=O	inactive

What did this assay record as the result for OCC(O)CCO/N=C1/C(c2c(O)[nH]c3ccccc23)=Nc2ccccc21 (stereo not given) ? active

What did this assay record as the result for COc1cc(O)c(C(=O)CCc2ccc(O)cc2)c(O[C@@H]2O[C@H](CO)[C@@H](O)[C@H](O)[C@H]2O)c1 ? inactive

What did this assay record as the result for C=CC(=O)c1ccc2ccccc2c1 ? inactive

What did this assay record as the result for CN1CCCN(C(=O)c2cccc(-c3ccc(/C=C4\C(=O)Nc5ccc(Cl)cc54)o3)c2)CC1 ? active

What did this assay record as the result for NCCNCCN ? inactive

What did this assay record as the result for CC/C=C\CC1C(=O)CCC1CC(=O)OC (stereo not given) ? inactive

Origin of values: PubChem BioAssay (NCATS)
